TARGET: CDK2/Cyclin A2 (Homo sapiens)
MEASUREMENT_PROTOCOL: Inhibition of CDK2/cyclin A2 (unknown origin)
METRIC: pIC50
Here pIC50 is given on a logarithmic scale as minus log10 of the concentration in mol/L.

Problem: In one line, give reported pIC50 of the entry CC(=O)c1c(C)c2cnc(Nc3ccc(N4CCN(C(=O)CCl)CC4)cn3)nc2n(C2CCCC2)c1=O .
Solution: 5.12

----------
TARGET: CDK6/cyclin D3 (Homo sapiens) (UniProt P30281+Q00534)
MEASUREMENT_PROTOCOL: Inhibition of CDK6/Cyclin D3 (unknown origin) at 20 nM using ATP by mobility shift assay
Assay type: protein-complex assay
Outcome label depends on inhibition relative to 80%: at/above gives condition met, below gives condition not met.

- CC(=O)c1c(C)c2cnc(Nc3ccc(N4CCN(CC(=O)NCCCNC(=O)CCl)CC4)cn3)nc2n(C2CCCC2)c1=O: condition met
- CC(=O)c1c(C)c2cnc(Nc3ccc(N4CCN(CCC(=O)NCCOCCNC(=O)CCl)CC4)cn3)nc2n(C2CCCC2)c1=O: condition met
- CCC(=O)N1CCN(c2ccc(Nc3ncc4c(C)c(C(C)=O)c(=O)n(C5CCCC5)c4n3)nc2)CC1: condition not met
- CC(=O)c1c(C)c2cnc(Nc3ccc(N4CCN(CCC(=O)NCCCCNC(=O)CCl)CC4)cn3)nc2n(C2CCCC2)c1=O: condition met

With those in mind, consider the next compound.
Problem: Please check the record CC(=O)c1c(C)c2cnc(Nc3ccc(N4CCN(CC(=O)NCCCCNC(=O)CCl)CC4)cn3)nc2n(C2CCCC2)c1=O and state if its inhibition is at or above 80%.
Solution: condition met

Values were extracted from ChEMBL document CHEMBL4819081.
